Experiment: method code SF, from DOI: 10.1021/bi00507a030, PMID: 7213619
Settings: pH 1.0
assay-metric: logD

{"compound-string": "CCC(N)=O", "assay-value": -0.66}

---

{"compound-string": "C#C[C@]1(O)CC[C@H]2[C@@H]3CCc4cc(O)ccc4[C@H]3[C@@H](CC)C[C@@]21C", "logP": 4.28}
{"compound-string": "C#C[C@@]1(O)[C@@H](F)C[C@H]2[C@@H]3CCc4cc(O)ccc4[C@H]3[C@@H](CC)C[C@@]21C", "logP": 4.12}

---

{"compound-string": "CC[C@H](C)[C@H](N)C(=O)N[C@@H](CC(C)C)C1(c2ccc(Cl)cc2)CCC1", "logP": 4.75}

---

Experiment: method code SF-AS, from DOI: 10.1248/cpb.21.2309, PMID: 4775970
Conditions: pH 3.3

{"compound-string": "Cc1nnc(NS(=O)(=O)c2ccc(N)cc2)s1", "logD": 0.26}
{"compound-string": "Cc1ccc(C)c(C(=O)NS(=O)(=O)c2ccc(N)cc2)c1", "logD": 2.19}

---

Experiment: method code SF-AS, from DOI: 10.1016/s0021-9673(01)89384-5
assay-metric: logP

{"compound-string": "Cc1nccnn1", "assay-metric": "logP", "assay-value": -0.55}

---

# logP per record follows

{"compound": "CC(C)N(CCC(CCC1CCCCC1)(C(N)=O)c1ccccc1Cl)C(C)C (stereo not drawn)", "logP": 4.23}
{"compound": "CC(C)N(CCC(C(N)=O)c1ccc(-c2ccccc2)cc1)C(C)C (stereo not drawn)", "logP": 3.66}
{"compound": "CC(C)N(CCC(C(N)=O)c1ccccc1Cl)C(C)C (stereo not drawn)", "logP": 2.83}

---

Test: method code SF-RC, from DOI: 10.1016/s0969-8051(00)00080-9, PMID: 10832080
Settings: pH 13.0

{"compound": "CN1C2CCC1C(c1ccccn1)C2 (configuration not stated)", "logD": 1.34}
{"compound": "CN1C2CCC1C(c1cccnc1)C2 (configuration not stated)", "logD": 1.65}

---

Experiment: method code SF-AS, from Kishida, K.; Otori, T. (1980). A quantitative study on the relationship between transcorneal permeability of drugs and their hydrophobicity. Jpn J Ophthalmol, 24(3)251-259.
Details: pH 7.4

{"compound-string": "Nc1ccc(Cc2ccc(N)cc2)cc1", "logD": 1.62}
{"compound-string": "CC(=O)c1ccc(N)cc1", "logD": 0.83}
{"compound-string": "Nc1ccc(CO)cc1", "logD": -0.22}
{"compound-string": "CCc1ccc(N)cc1", "logD": 1.96}
{"compound-string": "COc1ccc(OC)c(N)c1", "logD": 1.2}
{"compound-string": "Nc1ccc(CCO)cc1", "logD": 0.1}
{"compound-string": "CCOc1ccc(N)cc1", "logD": 1.24}

---

Assay: method code SF-C, from DOI: 10.1038/194178b0
assay-metric: logP

{"compound-string": "N#Cc1cccc(OCC(=O)O)c1", "assay-value": 1.2}
{"compound-string": "Cc1cccc(OCC(=O)O)c1", "assay-value": 1.88}
{"compound-string": "CC(=O)c1cccc(OCC(=O)O)c1", "assay-value": 1.34}
{"compound-string": "O=C(O)COc1cccc(C(F)(F)F)c1", "assay-value": 2.52}
